# target under test: T1, recombinant extracellular portion of human IGF1R (IGF1R^933-His fragment) (human, UniProt P08069 31-933)
# T1 construct: It holds a furin site (RKRR) between the alpha and beta subunits, so the protein may be cleaved into two disulphide-linked chains; also called h-IGF1R; recombinant human IGF1R; not shown: His tag from vector pCDN4/myc-His
# T1 sequence (P08069 31-933): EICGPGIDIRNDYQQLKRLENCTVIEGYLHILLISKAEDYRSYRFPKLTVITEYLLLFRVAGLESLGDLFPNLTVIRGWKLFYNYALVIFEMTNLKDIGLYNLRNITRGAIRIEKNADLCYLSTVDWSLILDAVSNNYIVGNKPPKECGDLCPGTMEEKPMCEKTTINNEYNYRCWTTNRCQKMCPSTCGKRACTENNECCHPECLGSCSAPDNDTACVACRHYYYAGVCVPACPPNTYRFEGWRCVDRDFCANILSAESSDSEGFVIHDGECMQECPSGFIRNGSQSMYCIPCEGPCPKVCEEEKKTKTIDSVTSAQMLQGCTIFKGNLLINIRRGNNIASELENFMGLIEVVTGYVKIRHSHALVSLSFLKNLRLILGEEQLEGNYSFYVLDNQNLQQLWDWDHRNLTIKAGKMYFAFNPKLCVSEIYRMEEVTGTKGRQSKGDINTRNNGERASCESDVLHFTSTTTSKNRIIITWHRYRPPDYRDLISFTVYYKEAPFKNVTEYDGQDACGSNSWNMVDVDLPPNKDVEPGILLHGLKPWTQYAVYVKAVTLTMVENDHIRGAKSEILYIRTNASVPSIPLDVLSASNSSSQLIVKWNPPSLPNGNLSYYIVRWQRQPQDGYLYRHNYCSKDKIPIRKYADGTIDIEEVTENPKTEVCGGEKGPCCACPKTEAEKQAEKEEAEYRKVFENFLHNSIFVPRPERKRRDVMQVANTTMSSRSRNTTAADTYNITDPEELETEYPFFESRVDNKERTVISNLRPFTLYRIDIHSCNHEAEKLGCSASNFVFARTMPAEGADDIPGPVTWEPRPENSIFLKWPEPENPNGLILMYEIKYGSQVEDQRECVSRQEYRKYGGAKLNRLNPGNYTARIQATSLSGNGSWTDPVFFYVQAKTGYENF
# test details: SPR (BIACORE 3000), human IGF1R immobilized on CM5, VHH injected, 1:1 model, 25 C
Each entry below carries its reported koff.
// units = s⁻¹; emit number, no label

Known koff results, listed for orientation:
Give reported koff value for IGF1R-5 VHH (VHH, Llama VHH expressed in E. coli TG1 from vector pSJF2H and purified by IMAC; Monomeric by SEC; also called anti-IGF1R VHH IGF1R-5; wild-type IGF1R-5) VHH: QVKLEESGGGLVQAGGSLRLSCAASGRTIDNYAMAWSRQAPGKDREFVATIDWGDGGARYANSVKGRFTISRDNAKGTMYLQMNNLEPEDTAVYSCAMARQSRVNLDVARYDYWGQGTQVTVSS 0.00034

Give reported koff value for IGF1R-5_H2 (VHH, Humanized variant of IGF1R-5, expressed from pSJF2H in E. coli; also called IGF1R H2) VHH: QVQLVESGGGLVQPGGSLRLSCAASGRTIDNYAMAWVRQAPGKGLEWVATIDWGDGGTRYANSVKGRFTISRDNSKNTMYLQMNSLRAEDTAVYYCAMARQSRVNLDVARYDYWGQGTLVTVSS 0.0029

Give reported koff value for IGF1R-5_H3 (VHH, Humanized variant of IGF1R-5, expressed from pSJF2H in E. coli) VHH: QVQLVESGGGLVQPGGSLRLSCAASGRTIDNYAMAWSRQAPGKGLEFVATIDWGDGGTRYANSVKGRFTISRDNSKNTMYLQMNSLRAEDTAVYYCAMARQSRVNLDVARYDYWGQGTLVTVSS 0.00041

Give reported koff value for IGF1R-5_H1 (VHH, Humanized variant of IGF1R-5, expressed from pSJF2H in E. coli) VHH: EVQLVESGGGLVQPGGSLRLSCAASGRTIDNYAMAWVRQAPGKGLEWVSTIDWGDGGTRYANSVKGRFTISRDNSKNTLYLQMNSLRAEDTAVYYCAMARQSRVNLDVARYDYWGQGTLVTVSS 0.0043

Give reported koff value for IGF1R-5_H5 (VHH, Humanized variant of IGF1R-5, expressed from pSJF2H in E. coli) VHH: QVQLVESGGGLVQPGGSLRLSCAASGRTIDNYAMAWSRQAPGKDREFVATIDWGDGGTRYANSVKGRFTISRDNSKGTMYLQMNSLRAEDTAVYSCAMARQSRVNLDVARYDYWGQGTLVTVSS 0.0008

From here, focus on the item given below.
Give reported koff value for IGF1R-5_H6 (VHH, Humanized variant of IGF1R-5, expressed from pSJF2H in E. coli) VHH: EVQLVESGGGLVQPGGSLRLSCAASGRTIDNYAMAWSRQAPGKDREFVSTIDWGDGGTRYANSVKGRFTISRDNSKNTLYLQMNSLRAEDTAVYYCAMARQSRVNLDVARYDYWGQGTLVTVSS 0.00072

Data provenance is patent US20170015748A1.
